Please go through the items and note down their apparent KD of K4 kissing-loop reporter.
System: K4 kissing-loop RNA reporter;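 further: bound reporter read as fluorescence of individual clusters on recovered sequencing chips by microscopy, with normalized cluster intensities fitted with a binding model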
Test: apparent KD of K4 kissing-loop reporter; higher = weaker reporter binding
Conditions: Eterna round: R107; input ligand: tryptophan 2.4 mM
Note: unit µM is implicit; provide only the numeric part.

Inquiry: Would you kindly share the measured apparent KD of K4 kissing-loop reporter for CACGAUGAAUUCUCUAGGAGUGAUGUUUUUCGAGGACCGGUACGGCCGCCACUCGGACCAGGAGCGUGGUAGCGGCGAAAAGACU [zpmullin] ?
Reply text: 0.484

Inquiry: Could you share which apparent KD of K4 kissing-loop reporter value was measured for UAAUAAAUUCCAGCUGUAUCACUCUUCGAAGGAGCGGACGAAAGUCCAGGUAGGUCGCGAAGAGUGAUGUUCUUUGCGGCGCUGG [Omei KL Arginine A Exc A v6] ?
Reply text: 0.0571

Inquiry: Which measured apparent KD of K4 kissing-loop reporter value corresponds to UGAGAUAUGAGGGAUACCAGCCAUAAGGAAAGUGUGAUGAGUGAUGUUCUGACAAGCCAAGGCCCUUGGCAGCUUUAAUAGCAUC [whbob_SS_Theo_B_th77] ?
Reply text: 0.267

Inquiry: What does the record list as apparent KD of K4 kissing-loop reporter for CCAUCGCUAUUCGAUACCAGUCAGGAGGUCUUUGGCCUCCUAAUGGAGUGAUGUUCCUUAGACCCUUGGCAGCGAAUAGUGAUGG [Theophylline B K4 14] ?
Reply text: 0.249

Inquiry: Give the measured apparent KD of K4 kissing-loop reporter of UGAUACCAGACGGCCGCCACUCCCGUAAGUCAAAGACUUACGAAGAGAGUCGUCCAGUGAUGUUGGAGGACCGGGUCUGGUAUCU [FiskerMod 12 - Jieux - Exclusion - Tryptophan B] .
Reply text: 0.294

Inquiry: I would be grateful if you could share the reported apparent KD of K4 kissing-loop reporter for UGUCAUUGGUCGGCCGCCACUAGGACCGGGUAUAACCUAGUGAUGUUAGUGAGUACGGCCGCCACUAGGACCGGGACCGAUGACU [KL-SSTryp-B120 #DoubleAptamer] .
Reply text: 0.0919

Inquiry: // apparent KD of K4 kissing-loop reporter lookup, key: AGAAGAGUGAUGUUCUUCUAUAUCUCAGAAGGAGCGACAUUAAUGUCAGGUAGGUCGCUGAGAUGAAAUCUCACACAGAUCUUGG [Arg A SS t8a]
Reply text: 0.125

Inquiry: Tell me the measured apparent KD of K4 kissing-loop reporter of UUAUCACCCUAAGGAUAUAGCUAAGUGAUGUUUAGCUCGUCGCAGGGUAAACACUAGGCCCAAAGGCUAGAAGGUAGCUGGUACC [theeternabot_exclusion_KL_FMN_B_35] , please.
Reply text: 0.0696

Inquiry: Request the reported apparent KD of K4 kissing-loop reporter associated with AGUACAGACACGGCCGCCACUCAGAAGAAGACAGUAGUGAUGUUACUGAUGGUGAGAAUAAUAAAGAGGACCGGGUGUUGUGCAA [#04 K4 Tryptophan B Same State]
Reply text: 0.138

Inquiry: Query: apparent KD of K4 kissing-loop reporter; subject: AAGUGUGUGGCGGCCGCCACUAGAAUCCAGUGAUGUUGGAGUUAUCAUGUAAAUGAUAAUCAACAUAGGACCGGGCCAUAUAGAA [Same State - Tryptophan B (Freestyle 8)]
Reply text: 0.349

Inquiry: What measured apparent KD of K4 kissing-loop reporter goes with CCCUCACGAGUGAUGUUCGUAGGGUACAGUCAGGAUAUCAUGCGGUUGAGAAGGGACAGGAAGGGCGGCGGCGGGUUGCUCACCG [Atera] ?
Reply text: 0.15

Inquiry: Give its apparent KD of K4 kissing-loop reporter value. Item: GGAUAGGACGGAGGAUAUGGUAGUGAUGUUACCAAACUGGUUAAACAUGUCAGAAAACUGGCAUGACCAGAAGGUUGUCCUAUCG [FmnBX 27 G10+U75]
Reply text: 0.0733

Inquiry: Which apparent KD of K4 kissing-loop reporter value is on record for UGUCAUUGGUCGGCCGCCACUAAAUAAAAGAGUGAUGUUCUUAAGACGGAUCGAAAGAUCUGUCAUAGGACCGGGACCGAUGACU [TrypBS 21 #SwitchBubble #StaticStem] ?
Reply text: 0.667

Inquiry: Reported apparent KD of K4 kissing-loop reporter, sequence CCAGAAUAAUGAAGAUGAUAAAUUACUGAAGGAGCGCAUAUAGUUGCAGGUAGGUCGCGGUGAAUAAGUAUAGUGAUGUUAUACC [SSArgA.Ad] : ____
Reply text: 0.255

Inquiry: Field request: apparent KD of K4 kissing-loop reporter | item: GGCGGCUGCGCGCAAGCGCAGCCGGCCGAUACCAGCGCGACGGCGCGCCCUUGGCAGCGGCGCCGAGUGAUGUUCGGCCUGCCGU [#2 Same State - Theophylline A Attempt #22 (HarryS)]
Reply text: 0.141

Inquiry: Value lookup for apparent KD of K4 kissing-loop reporter; key = GGGAGGAUUAAAUAAAUAAAUAAGAUAGAUACCAGUUGAGAGUAAGGCCCUUGGCAGCUAAAACGAGUGAUGUUCGAGUAAAUCC [Default title]
Reply text: 0.0624

Inquiry: // query apparent KD of K4 kissing-loop reporter value for entry UAACCGCAGAAAGAUACCAGUGAGUGAUGUUCCUCGAUCCUGUGGUUCAUUCUCUUUACCCACCCUUGGCAGCUUCAAAUGUGAC [theeternabot_exclusion_KL_Theo_B_4]
Reply text: 0.602

Inquiry: So what's the measured apparent KD of K4 kissing-loop reporter for this one? CCAGGACGAUGAGGAUGAUGAAUUACUGAAGGAGCGCAUAUGGUUGCAGGUAGGUCGCGGUGAACAAGUAUAGUGAUGUUAUGCC [SSArgA.V]
Reply text: 0.631

Inquiry: What does the data say about its apparent KD of K4 kissing-loop reporter? Entry: AGGCACGAGCAAGGAUAUUGAGUAGAGUGAUGUUCUGCCUGGGUUGGCUCGGAAGAGCCUUCUCAGCGAGAAGGUGCUCGUGCCU [#2 Same State - FMN A Attempt #24 (HarryS)]
Reply text: 0.556

Inquiry: Fill in the blank: the reported apparent KD of K4 kissing-loop reporter of UGUAUGUGAUUUGAUACCAGACCAUCUUGUGAGAAGUGAGUGAUGUUUAUUUUGGUUUGGGUCCCUUGGCAGCAAAUCGCAUACU [KL-SSTheoB23] is ____.
Reply text: 0.738

Inquiry: Request the reported apparent KD of K4 kissing-loop reporter associated with GGUAGCAUGGCGGCCGCCACUACAAGUAGUGACCCAAGUGAUGUUUGGAAGCGGGUCCUAAUUGGUAGGACCGGGCCAUGCUACC
Reply text: 0.566

Inquiry: Fill in: apparent KD of K4 kissing-loop reporter of CGUCGGUAGUGAUGUUGCCACGACGCUUUUAAGGAUAUAAGCUAAGUUAGAAGGUAAGAGAGUCAGCCCGGUGGCCUUAGAGUAG [theeternabot_exclusion_KL_FMN_A_17] is ___
Reply text: 0.151
